Where do the numbers come from? From patent US12286632B2.

Each entry below carries its reported viability at 1 min, 10 µM.
# method_summary: in vitro
# particulars: human, HeLa cells, Cell viability (%) (±St. Dev.; n = 3)
Ends that are not written are not given here.
recorded_metric: viability at 1 min, 10 µM (%)

> print(dat)
                           polymer.sequence            recorded.metric  data.value
1  LHHHSHHLIHIWLLFKLKLKKKKAARRARRARRHH [FSD29]  viability at 1 min, 10 µM        89.8
2  LHHHHHKLIHIWEAKLAKALAKALARRAAARQARA [FSD41]  viability at 1 min, 10 µM        79.5
3  HHHHHHKWKLARAFARAIKKLYARALRRQARTGHHHHHH [FSD9]  viability at 1 min, 10 µM        79.5
4  HHHHHHHHRQRRRWEARGFLGGGGYARAARQARAA [FSD39]  viability at 1 min, 10 µM        97.3
5  HHHHHHCLLKKWEAKLAKKIGGGGRQARAKALAKA [FSD30]  viability at 1 min, 10 µM        99.1
6  GHHHHHHHLIHIWEAKLAKLAKALARAAARQARAK [FSD38]  viability at 1 min, 10 µM        98.1
7  HHHHHHHHRQRRRWEARGGFLGGGGYARAARQARA [FSD33]  viability at 1 min, 10 µM        98.1
8  HHHHHHCMKVVWEIVLAKYKGGGGRARAASRRARA [FSD42]  viability at 1 min, 10 µM        97.3
9  HHHHHHLLKLWSRLLKLWTQGRRLKAKRAKAHHHHHH [FSD5]  viability at 1 min, 10 µM          76
